# Lookup of reported IC50 keyed by entry
tested on: Hepatitis B virus; assay: Antiviral activity against HBV infected in human HepG2.2.15 cells assessed as inhibition of viral e antigen production; format: functional, organism-based; conditions: HepG2 2.2.15

The cases that follow already have their IC50 on record.
CC(=O)OC(C)(C)CCC(=O)[C@](C)(O)[C@H]1[C@H](O)C[C@@]2(C)[C@@H]3CC=C4[C@@H](C[C@H](O)[C@@H](O)C4(C)C)[C@]3(C)C(=O)C[C@]12C : > 66.2 µM
CCCC(=O)O[C@@H]1[C@@H](O)C[C@@H]2C(=CC[C@@H]3[C@@]2(C)C(=O)C[C@]2(C)[C@@H]([C@@](C)(O)C(=O)CCC(C)(C)OC(C)=O)[C@H](O)C[C@@]32C)C1(C)C : > 6.3 µM
CCCC(=O)O[C@H]1C[C@H]2[C@]3(C)C(=O)C[C@]4(C)[C@@H]([C@@](C)(O)C(=O)CCC(C)(C)OC(C)=O)[C@H](OC(=O)CCC)C[C@@]4(C)[C@@H]3C[C@H]3O[C@]32C(C)(C)[C@@H]1OC(=O)CCC : 401 µM

Shifting focus to the compound that follows.
# input What value of measured IC50 is listed for CCOCC(=O)O[C@H]1C[C@@H]2C(=CC[C@@H]3[C@@]2(C)C(=O)C[C@]2(C)[C@@H]([C@@](C)(O)C(=O)CCC(C)(C)OC(=O)COCC)[C@H](OC(=O)COCC)C[C@@]32C)C(C)(C)[C@@H]1OC(=O)COCC ?
# output > 1450 µM

All figures here come from ChEMBL document CHEMBL2331335.
